Data credit: the RNAGym collection of RNA variant scans (doi:10.7554/elife.80360)

B1: HDV Ribozyme (parent)
chain: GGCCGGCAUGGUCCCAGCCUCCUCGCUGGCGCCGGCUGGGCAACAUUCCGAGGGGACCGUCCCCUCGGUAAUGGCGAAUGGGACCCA

Variants of: B1
experiment-summary: self-cleavage, relative activity (ratio to wild type); higher = more cleavage; co-transcriptional
Lab note: anything with self-cleavage at or over 0.9 counts as true; the rest go in false.

{"mutation-list": "G50C G81C", "assigned-class": "false"}
{"mutation-list": "U23G U27G", "assigned-class": "false"}
{"mutation-list": "G25A G38C", "assigned-class": "false"}
{"mutation-list": "G31A U79G", "assigned-class": "false"}
{"mutation-list": "U9C C58G", "assigned-class": "true"}
{"mutation-list": "U23A G76U", "assigned-class": "true"}
{"mutation-list": "U37C G53C", "assigned-class": "true"}
{"mutation-list": "C22U G80C", "assigned-class": "false"}
{"mutation-list": "A70G A71U", "assigned-class": "false"}
{"mutation-list": "C64U A71G", "assigned-class": "true"}
{"mutation-list": "C18U G80C", "assigned-class": "false"}
